- Test System: T1, VEGFR-2-Fc (human, UniProt P35968 20-322)
- T1 construct: domain: first 3 Ig domains; used as conditioned supernatant of 293T cells; also called VEGFR-2-Fc fusion protein; not shown: Fc fragment of the pIg vector
- T1 sequence (P35968 20-322): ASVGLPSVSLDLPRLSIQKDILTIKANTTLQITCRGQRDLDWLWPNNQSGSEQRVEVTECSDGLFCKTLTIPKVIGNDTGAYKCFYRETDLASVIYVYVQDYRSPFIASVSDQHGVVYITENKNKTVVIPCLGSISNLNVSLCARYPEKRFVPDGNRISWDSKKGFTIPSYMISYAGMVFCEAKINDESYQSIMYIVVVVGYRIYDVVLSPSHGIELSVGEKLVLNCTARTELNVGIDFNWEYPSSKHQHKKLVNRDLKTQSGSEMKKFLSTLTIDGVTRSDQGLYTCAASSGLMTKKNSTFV
- Test Protocol: receptor-Fc IP
Outcome Measure: binding result

Consider the reported binding result for these binders:
12-11 (ligand) GQNHHEVVKFMDVYQRSYCHPIETLVDIFQEFGVATNTFFKPPCVSVYRCGGCCNSEGLQCVPTEESNITMQIMRITVPLSQGPKPVTISFLQHNKCECRPKKD: binds
12-7 (ligand) GQNHHEVVKFMDVYQRSYCHPIETLVDIFQEFGVATNTFFKPPCVSVYRCGGCCNSEGLQCVPTEESNITMQIMRIKPHQGQHIGEMSFANHTSCRCMSKLD: binds
12-14 (ligand) GQNHHEVVKFMDVYQRSYCHPIETLVDIFQEFGVATNTFFKPPCVSVYRCGGCCNDEGLECMNTSTSYLSKTLFEITVPLSQGPKPVTISFANHTSCRCMSKLD: no binding
61-14 (ligand) GQNHHEVVKFMDVYQRSYCHPREVCIDVGKEYPDEIEYIFKPSCVPLMRCGGCCNDEGLECMNTSTSYLSKTLFEITVPLSQGPKPVTISFANHTSCRCMSKLD: no binding
84-11 (ligand) AHYNTEILKFMDVYQRSYCHPIETLVDIFQEFGVATNTFFKPSCVPLMRCGGCCNSEGLQCVPTEESNITMQIMRITVPLSQGPKPVTISFLQHNKCECRPKKD: binds
82-13 (ligand) AHYNTEILKFMDVYQRSYCHPIETLVDIFQEFGVATNTFFKPPCVSVYRCGGCCNDEGLECVPTEESNITMQIMRITVPLSQGPKPVTISFANHTSCRCMSKLD: no binding
12-1 (ligand) GQNHHEVVKFMDVYQRSYCHPIETLVDIFQEFGVATNTFFKPPCVSVYRCGGCCNDEGLECVPTEESNITMQIMRIKPHQGQHIGEMSFLQHNKCECRPKKD: binds

Attention now shifts to the item below.
Give binding result for 11-1 (ligand) GQNHHEVVKFMDVYQRSYCHPIETLVDIFQEYPDEIEYIFKPSCVPLMRCGGCCNDEGLECVPTEESNITMQIMRIKPHQGQHIGEMSFLQHNKCECRPKKD
binds
